These records show AC50 for Adenosine receptor A2a (Homo sapiens).

# COMPOUND, AC50
data = [
    ("O=C1C(O)=C([C@H]2CC[C@H](c3ccc(Cl)cc3)CC2)C(=O)c2ccccc21", "> 30 µM"),
    ("CN1C(=O)C(O)N=C(c2ccccc2Cl)c2cc(Cl)ccc21 (stereo not drawn)", "> 30 µM"),
    ("CCOc1ccc(Cc2cc([C@@H]3O[C@H](CO)[C@@H](O)[C@H](O)[C@H]3O)ccc2Cl)cc1", "> 30 µM"),
    ("COc1cc(NC(C)CCCN)c2ncccc2c1 (stereo not drawn)", "> 30 µM"),
    ("O=P1(NCCCl)OCCCN1CCCl (stereo not drawn) [IFOSFAMIDE]", "> 30 µM"),
    ("Cn1nnc2c(C(N)=O)ncn2c1=O [TEMOZOLOMIDE]", "> 30 µM"),
    ("NC(=O)CN1CC(O)CC1=O (stereo not drawn)", "> 30 µM"),
    ("OC(CNCC(O)C1CCc2cc(F)ccc2O1)C1CCc2cc(F)ccc2O1 (stereo not drawn)", "> 30 µM"),
    ("CN1CCN(CC/C=C2/c3ccccc3Sc3ccc(S(=O)(=O)N(C)C)cc32)CC1", "11.6 µM"),
    ("CO[C@@H]1[C@@H](O[C@@H]2O[C@H](C)[C@@H](O[C@H]3C[C@@](C)(O)[C@@H](OC(=O)CC(C)C)[C@H](C)O3)[C@H](N(C)C)[C@H]2O)[C@@H](CC=O)C[C@@H](C)[C@@H](O)/C=C/C=C/C[C@@H](C)OC(=O)C[C@H]1OC(C)=O", "> 10 µM"),
    ("C[C@H](CSC(=O)c1ccccc1)C(=O)N1C[C@@H](Sc2ccccc2)C[C@H]1C(=O)O", "> 10 µM"),
    ("CC[C@H]1CN2CCc3cc(OC)c(OC)cc3[C@@H]2C[C@@H]1C[C@H]1NCCc2cc(OC)c(OC)cc21", "> 30 µM"),
    ("O=[N+]([O-])O[C@@H]1CO[C@H]2[C@@H]1OC[C@@H]2O [ISOSORBIDE MONONITRATE]", "> 30 µM"),
    ("CC[C@@H](C(N)=O)N1CCCC1=O", "> 30 µM"),
    ("CC1(C)NC(=O)N(c2ccc([N+](=O)[O-])c(C(F)(F)F)c2)C1=O [NILUTAMIDE]", "> 30 µM"),
    ("CN1C(=O)CCS(=O)(=O)C1c1ccc(Cl)cc1 (stereo not drawn)", "> 10 µM"),
    ("C=CCN1CCCC1CNC(=O)c1cc(S(N)(=O)=O)cc(OC)c1OC (stereo not drawn) [VERALIPRIDE]", "> 30 µM"),
    ("COc1ccccc1N1CCN(CCCNc2cc(=O)n(C)c(=O)n2C)CC1", "> 30 µM"),
]

###

// values below are reported AC50
molecular target: Progesterone receptor (Homo sapiens); format: functional; note: assay procedure not described here
Sequence (P06401 whole entry): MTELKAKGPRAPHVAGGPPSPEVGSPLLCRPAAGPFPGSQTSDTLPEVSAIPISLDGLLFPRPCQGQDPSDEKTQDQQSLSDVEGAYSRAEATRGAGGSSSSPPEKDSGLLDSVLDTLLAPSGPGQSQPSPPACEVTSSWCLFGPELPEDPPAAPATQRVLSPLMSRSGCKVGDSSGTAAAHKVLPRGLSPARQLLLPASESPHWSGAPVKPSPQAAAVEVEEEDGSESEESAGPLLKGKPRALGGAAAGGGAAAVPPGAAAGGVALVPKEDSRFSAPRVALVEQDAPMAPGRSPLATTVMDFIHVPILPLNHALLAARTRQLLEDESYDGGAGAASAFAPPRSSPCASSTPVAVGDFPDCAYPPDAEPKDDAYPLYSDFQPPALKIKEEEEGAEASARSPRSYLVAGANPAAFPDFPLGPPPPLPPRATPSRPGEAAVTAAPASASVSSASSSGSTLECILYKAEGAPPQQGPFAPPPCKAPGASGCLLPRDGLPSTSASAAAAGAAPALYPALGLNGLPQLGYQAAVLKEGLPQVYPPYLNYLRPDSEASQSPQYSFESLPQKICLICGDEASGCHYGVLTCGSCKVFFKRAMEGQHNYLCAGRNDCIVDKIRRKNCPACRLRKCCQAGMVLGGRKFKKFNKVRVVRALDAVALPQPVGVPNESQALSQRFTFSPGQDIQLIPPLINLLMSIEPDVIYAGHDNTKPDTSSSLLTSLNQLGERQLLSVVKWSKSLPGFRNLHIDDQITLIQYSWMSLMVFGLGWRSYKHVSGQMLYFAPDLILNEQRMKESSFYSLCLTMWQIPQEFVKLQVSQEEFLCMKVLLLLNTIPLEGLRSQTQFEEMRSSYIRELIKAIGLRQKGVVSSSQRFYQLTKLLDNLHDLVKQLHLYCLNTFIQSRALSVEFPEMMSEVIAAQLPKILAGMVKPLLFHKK
ENDPOINT_NAME: AC50

# MOLECULE, ENDPOINT_NAME, VALUE_MEASURED
rows = [
    ("CC(C)Cn1cnc2c(N)nc3ccccc3c21", "AC50", "> 10 µM"),
    ("c1cnc(N2CCN(Cc3ccc4c(c3)OCO4)CC2)nc1", "AC50", "> 30 µM"),
    ("COc1ccc(CCNCC(O)COc2cccc(C)c2)cc1OC (stereo not drawn)", "AC50", "> 10 µM"),
    ("C/C(O)=C(\\C#N)C(=O)Nc1ccc(C(F)(F)F)cc1 [TERIFLUNOMIDE]", "AC50", "> 30 µM"),
    ("COc1ccc(CC(C)(C)NC[C@H](O)c2cc(O)cc3c2OCC(=O)N3)cc1", "AC50", "> 30 µM"),
    ("C=CCN1C[C@H](C(=O)N(CCCN(C)C)C(=O)NCC)C[C@@H]2c3cccc4[nH]cc(c34)C[C@H]21", "AC50", "> 10 µM"),
    ("C[C@@H](O)[C@H]1C(=O)N2C(C(=O)O)=C(S[C@@H]3CN[C@H](C(=O)N(C)C)C3)[C@H](C)[C@H]12", "AC50", "> 300 µM"),
    ("CN(C)CCC=C1c2ccccc2C(C)(C)c2ccccc21", "AC50", "> 30 µM"),
    ("CN1C(=O)OC(C)(C)C1=O", "AC50", "> 10 µM"),
    ("Cc1nc([N+](=O)[O-])cn1-c1ccc([N+](=O)[O-])cc1", "AC50", "> 30 µM"),
    ("CC[C@H]1CN2CCc3cc(OC)c(OC)cc3[C@@H]2C[C@@H]1C[C@H]1NCCc2cc(OC)c(OC)cc21", "AC50", "> 30 µM"),
    ("O=P1(NCCCl)OCCCN1CCCl (stereo not drawn) [IFOSFAMIDE]", "AC50", "> 30 µM"),
    ("COc1cc2c(N)nc(N3CCN(C(=O)OCC(C)(C)O)CC3)nc2c(OC)c1OC", "AC50", "> 30 µM"),
    ("CNC(C)CCC=C(C)C (stereo not drawn)", "AC50", "> 30 µM"),
    ("C[C@@H]1O[C@@H](O[C@@H]2C=C3CC[C@@H]4[C@H](CC[C@]5(C)[C@@H](c6ccc(=O)oc6)CC[C@]45O)[C@@]3(C)CC2)[C@H](O)[C@H](O)[C@H]1O", "AC50", "> 30 µM"),
    ("COc1ccccc1OCCNCC(O)c1ccc(C)c(S(N)(=O)=O)c1 (stereo not drawn)", "AC50", "> 30 µM"),
    ("C=CCN1CCCC1CNC(=O)c1cc(S(N)(=O)=O)cc(OC)c1OC (stereo not drawn) [VERALIPRIDE]", "AC50", "> 30 µM"),
    ("Cn1c(=O)c2c(ncn2CC2OCCO2)n(C)c1=O", "AC50", "> 30 µM"),
]
